measurementDescription: Toxicity liver stage against HepG2, at 10uM
Format: cell-based
Design: test concentration 10 uM, cell line HepG2-A16-CD81EGFP
conditionInfo: human, HepG2-A16-CD81EGFP cells; read-out: INHIBITION
This listing pairs compounds with measured cytotoxicity at 10 µM.
Number only, in %; omit the unit.

Study these solved cases before continuing.
compound: O=S(=O)(Cc1ccc(F)c(Cl)c1)NCCOc1cccnc1
cytotoxicity at 10 µM (%): -49.9
//
compound: CCn1nc2c(cc1=O)CN(CC(=O)Nc1nnc(C)s1)CC2
cytotoxicity at 10 µM (%): -18.2
//
compound: N#Cc1cc(F)ccc1NCC1CCS(=O)(=O)CC1
cytotoxicity at 10 µM (%): 2.02
//
compound: CN(C)c1ncccc1CNC(=O)N(Cc1ccccc1F)C1CC1
cytotoxicity at 10 µM (%): 2.6
//
compound: Cc1cc(C(N)=O)nc(C2(C)CCCN2Cc2cnn(C)c2)n1 (centres undefined)
cytotoxicity at 10 µM (%): -23.6

// query Give the measured cytotoxicity at 10 µM of Cc1cnn(CCCNC2Cc3ccccc3C2)c1 .
// result 3.34

// query Give the measured cytotoxicity at 10 µM of COc1cccc(SCCCn2cnc3c(N)ncnc32)c1 .
// result 11.7

// query Give the measured cytotoxicity at 10 µM of COc1ccc(N(C)C(=O)c2ccc(Cl)c(S(C)(=O)=O)c2)cn1 .
// result -11.2

* * *

measurementDescription: Toxicity liver stage against HepG2, at 10uM
Assay type: cell-based
Parameters: test concentration 10 uM, cell line HepG2-A16-CD81EGFP
conditionInfo: human, HepG2-A16-CD81EGFP cells; read-out: INHIBITION
testReadout: cytotoxicity at 10 µM (%)
Number only, in %; omit the unit.

molecule: CNC(=O)[C@H]1C[C@@H]2CN(S(=O)(=O)c3ccc(OC)cc3)C[C@@H]2N1C
unitsOfMeasure: %
cytotoxicity at 10 µM: -3.9

// query Give the measured cytotoxicity at 10 µM of Cc1ccc2cc(C(=O)N3CCN(C(=O)N(C)C)CC3)ccc2n1 .
// result -52.1

// query Give the measured cytotoxicity at 10 µM of CN(C)Cc1nc(C(C)(C)NC(=O)c2ccc3ccccc3c2)no1 .
// result -2.22

// query Give the measured cytotoxicity at 10 µM of O=C(CSc1ccncc1)N1CCC2(CC1)c1ccccc1CC2O (stereo not given) .
// result -2.36

// query Give the measured cytotoxicity at 10 µM of CCC(NC(=O)C1CCN(S(C)(=O)=O)CC1)c1ccc(OC)c(C)c1 (stereo not given) .
// result -10

* * *

measurementDescription: Toxicity liver stage against HepG2, at 10uM
Assay type: cell-based
Design: test concentration 10 uM, cell line HepG2-A16-CD81EGFP
conditionInfo: human, HepG2-A16-CD81EGFP cells; read-out: INHIBITION
testReadout: cytotoxicity at 10 µM
The reply should read as a number followed by its unit.

Study these solved cases before continuing.
compound: CC(=O)N1CCN(Cc2ccc(OCc3nccn3C)cc2)CC1
cytotoxicity at 10 µM: -2.68%

compound: OC1(CN2CCC(Cc3ccccc3)CC2)CCC1
cytotoxicity at 10 µM: -8.26%

compound: O=C(CSc1nnc[nH]1)NCc1sccc1Br
cytotoxicity at 10 µM: 0.388%

compound: COCc1cc(N2CCN(c3ccc(Cl)cn3)CC2)n2nccc2n1
cytotoxicity at 10 µM: 8.89%

compound: CCc1ccc(S(=O)(=O)N2CCCn3ncnc32)s1
cytotoxicity at 10 µM: -0.908%

compound: CC(=O)N1CCC2(CC1)CN(C(=O)c1ccc3c(c1)OCCO3)C2
cytotoxicity at 10 µM: 9.15%

compound: COCC1CCN(c2cc(C3CN(C)CCO3)nc(C)n2)CC1 (configuration not stated)
cytotoxicity at 10 µM: 4.71%

compound: FC(F)(F)c1[nH]nc2c1CN(Cc1ccccc1)CC2
cytotoxicity at 10 µM: 11.8%

// query Give the measured cytotoxicity at 10 µM of CCc1cccc(NC(=O)CNc2ccccc2OCCC(=O)OC)c1 .
// result 7.53%

// query Give the measured cytotoxicity at 10 µM of N#Cc1cccnc1NCc1cccnc1N1CCC(C(N)=O)CC1 .
// result -0.179%

// query Give the measured cytotoxicity at 10 µM of CC(=O)CC(C)(C)NC(=O)CCN(C)Cc1ccc(Cl)s1 .
// result 7.35%

// query Give the measured cytotoxicity at 10 µM of COCCN1CCN(c2ccc(C)nn2)Cc2cccnc21 .
// result -3.68%

Data origin, for the record: ChEMBL document CHEMBL4513216
